system: PDE1; assay: In vitro HTRF PDE1 inhibition assay; format: biochemical; settings: HTRF cGMP assay, 100 nM cyclic GMP, PDE (1A3, 1B or 1C) with calmodulin, 45 minutes at 37° C.; isoform of the tabulated values not stated
measurement-type: IC50

# compound, system-under-test, measurement-type, result
records = [
    ("CC(C)n1ncc2c(=O)n3c(nc21)CN(c1cccc(Cl)c1)CC3", "PDE1", "IC50", "< 1000 nM"),
]

Q: Let me know recorded IC50 for `O=c1c2c(Nc3ccccc3)n(Cc3ccccc3)nc2nc2n1CCNC2` , thanks.
Result: > 10000 nM

Q: Given O=c1c2cnn(C3CCOC3)c2nc2n1CCN(Cc1ccc(Cl)cc1)C2 (racemic) , respond with its IC50.
Result: 1000 to 10000 nM

Q: Please supply the value of reported IC50 for the item COc1cccc(N2Cc3nc4c(cnn4C(C)C)c(=O)n3CC2C)c1 (racemic)
Result: < 1000 nM

Q: Give the reported IC50 for this compound. O=c1c2cnc(C3CCOC3)n2nc2n1CCN(c1ccccc1)C2 (racemic)
Result: < 1000 nM

Q: Give the measured IC50 for `CC(C)c1ncc2c(=O)n3c(nn12)CN(Cc1ccc(Cl)cc1)CC3`
Result: < 1000 nM

Q: Provide one value: measured IC50 of CC1Cn2c(nc3c(cnn3C(C)C)c2=O)CN1Cc1cccc(F)c1 (racemic)
Result: < 1000 nM

Q: Give IC50 for CC1Cn2c(nc3c(cnn3C(C)C)c2=O)CN1c1ccc(Cl)cc1 (racemic)
Result: 1000 to 10000 nM

Q: Determine its reported IC50: `COCCn1ncc2c(=O)n3c(nc21)CN(Cc1ccc(Cl)c(Cl)c1)CC3`
Result: > 10000 nM

Q: Return reported IC50. Input compound: `CC(C)Cn1ncc2c(=O)n3c(nc21)CN(Cc1ccccc1Cl)CC3`
Result: 1000 to 10000 nM

Q: Return reported IC50. Input compound: CC(C)n1ncc2c(=O)n3c(nc21)CN(Cc1ccccc1)C(c1ccccc1)C3 (racemic)
Result: > 10000 nM

Q: Give the reported IC50 for this compound. `COc1cccc(CN2CCn3c(nc4c(cnn4C4CCCC4)c3=O)C2)c1`
Result: < 1000 nM

The origin of these recorded values is patent US20160083391A1.
